# System: NCI-H23 lung
# experiment summary: NCI tumour cell line growth inhibition, 48 h
Below: a set of entries, each annotated with reported TGI.

These solved cases illustrate the format of a correct answer.
molecule=CCOP(=O)(OCC)/C(C#N)=C/c1cnc(C)[nH]1 measurement="> 100 µM"
molecule="O=C(O)C(Cc1c[nH]c2ccccc12)C(=O)NO (stereo unspecified)" measurement="> 100 µM"
molecule=O=C(O)c1ccccc1CC1Cc2ccccc2C1 measurement="> 100 µM"
molecule=COc1ccc(/C=C/C(=O)c2cccc(B(O)O)c2)cc1O measurement="22.7 µM"

Exercise: Given CCCCCCCCC1=CCC(CN(C)C)C1=O (stereo unspecified) , state its recorded TGI.
Solution: 39.2 µM

Exercise: I would be grateful if you could share the reported TGI for COC(=O)[C@]12CSCN1C(=O)C(C(C)=O)=NN2C(=O)[C@](OC)(c1ccccc1)C(F)(F)F .
Solution: > 100 µM

---

# System: SNB-19 CNS
# experiment summary: NCI tumour cell line growth inhibition, 48 h; in the data active means GI50 below about 0.43 µM; inactive means the rest
In this exercise, the only acceptable responses are active, inactive

Exercise: Called result for C[C@@H](O)[C@H]1C(=O)N2C(C(=O)O)=C(SCCN=CN)C[C@H]12
Solution: inactive

Exercise: State the result this test recorded for COC(=O)C(N)CSC(c1ccccc1)(c1ccccc1)c1ccccc1 (configuration not stated) .
Solution: inactive

Exercise: Answer briefly: the call reported for COc1ccc2c(c1)C(=O)c1c-2n(CCCNCCO)c(=O)c2ccccc12 in this assay.
Solution: active

Exercise: Kindly provide the recorded test outcome for the following compound: CCN(CC)c1ccc(/C=C2\SC(=O)C(Nc3nnc(-c4cccnc4SCc4ccccc4)o3)C2=O)cc1 (configuration not stated)
Solution: inactive

Exercise: Call for entry Cn1cc(C2=C(c3cn(CCCO)c4ccccc34)C(=O)NC2=O)c2ccccc21 :
Solution: inactive

Exercise: For CC(C)[C@]12O[C@H]1[C@@H]1O[C@]13[C@]1(O[C@H]1C[C@H]1C4=C(CC[C@@]13C)C(=O)OC4)[C@@H]2OC(=O)CN(C)C , what call appears in the results of this test?
Solution: active

Exercise: Tell me the recorded outcome of this test for O=C(Nc1cccc(-c2cccc(F)c2)c1)C1CCN(Cc2cccc3cccnc23)CC1 .
Solution: inactive

---

TGI listing for selected compounds.
# System: COLO 205 colon
# experiment summary: NCI tumour cell line growth inhibition, 48 h

Exercise: Tell me the measured TGI of CCOC(=O)N/N=C(\Cc1ccccc1)OCC , please.
Solution: > 100 µM

Exercise: // query TGI value for entry COc1ccc(/C=C/C(=O)c2sc(NC(=S)NC(=O)c3ccccc3F)nc2C)cc1OC
Solution: > 100 µM

Exercise: Form field: reported TGI of O=C1OC2C(O)COC2(O)C1(O)Cc1c[nH]c2ccccc12 (stereo unspecified)
Solution: > 100 µM

Exercise: Quick one: TGI of CC1=C(C(=O)CC(=O)C(=O)Nc2ccccc2C(F)(F)F)Sc2ccccc2N1 ?
Solution: > 100 µM

Exercise: What does the record list as TGI for COc1ccc(-c2cc(-c3cc(F)c(Cl)cc3Cl)[nH]n2)cc1OC ?
Solution: 47 µM

Exercise: // returns reported TGI for input CC(=O)OC[C@]1(C)C=C2C(=O)[C@](C)(O)C3(CC3)C(C)=C2[C@H]1OC(=O)N(C)CCN(C)C(=O)OC(C)(C)C
Solution: 2.58 µM

Exercise: GET /values?readout=TGI&item= Cc1c2cnccc2c(C)c2c1c1cc(CO)ccc1n2C
Solution: 1.26 µM

Exercise: Form field: reported TGI of Cc1cc(C)c2cc(N)c(Cl)nc2n1
Solution: > 100 µM
